- tested.system: T1, His-tagged, full-length human PCSK9 (proprotein convertase subtilisin/kexin type 9) (human, UniProt A8T644 31-152; Q8NBP7 153-692)
- T1 construct: also called His-PCSK9; C-terminal (His)8-tagged PCSK9
- T1 sequence (A8T644 31-152, chain 1 of 2): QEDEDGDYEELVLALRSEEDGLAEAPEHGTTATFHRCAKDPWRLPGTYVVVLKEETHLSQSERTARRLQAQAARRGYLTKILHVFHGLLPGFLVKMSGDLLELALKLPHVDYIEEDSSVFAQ
- T1 sequence (A8T644 other isoform, or with tags, fused parts or gaps, chain 2 of 2): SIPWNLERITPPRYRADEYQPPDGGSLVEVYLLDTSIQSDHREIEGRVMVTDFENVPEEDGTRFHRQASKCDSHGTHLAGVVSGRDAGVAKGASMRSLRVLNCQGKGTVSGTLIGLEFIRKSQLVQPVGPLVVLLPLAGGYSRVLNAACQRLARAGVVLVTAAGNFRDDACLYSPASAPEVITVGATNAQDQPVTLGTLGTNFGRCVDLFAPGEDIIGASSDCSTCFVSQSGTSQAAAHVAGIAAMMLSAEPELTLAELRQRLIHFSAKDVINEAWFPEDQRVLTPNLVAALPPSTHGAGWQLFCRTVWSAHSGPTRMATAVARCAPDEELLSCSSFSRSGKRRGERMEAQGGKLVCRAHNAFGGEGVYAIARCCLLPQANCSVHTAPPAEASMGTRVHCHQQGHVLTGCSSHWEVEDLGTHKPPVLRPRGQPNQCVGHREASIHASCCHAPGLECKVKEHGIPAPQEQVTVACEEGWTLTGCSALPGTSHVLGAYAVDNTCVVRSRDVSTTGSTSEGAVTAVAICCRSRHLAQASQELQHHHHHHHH
- test.description: TR-FRET competition; His-PCSK9 with LDLR-Fc as competitor ligand
pIC50: −log10 of the molar value. Square brackets hold non-standard residues; d marks the D form. hArg = N=C(N)NCCCC[C@H](N)C(=O)O
Could you please report measured pIC50 for the items listed next?

These solved cases illustrate the format of a correct answer.
binder	pIC50
Ac-WNLV[hArg]IGLLR-NH2 [Compound 192: Ac-WNLV(homoR)IGLLR-NH2]	< 4.30
Ac-MESFPGWNLV[hArg]IGLLR-NH2 (SMILES CC[C@H](C)[C@H](NC(=O)[C@H](CCCCNC(=N)N)NC(=O)[C@@H](NC(=O)[C@H](CC(C)C)NC(=O)[C@H](CC(N)=O)NC(=O)[C@H](Cc1c[nH]c2ccccc12)NC(=O)CNC(=O)[C@@H]1CCCN1C(=O)[C@H](Cc1ccccc1)NC(=O)[C@H](CO)NC(=O)[C@H](CCC(=O)O)NC(=O)[C@H](CCSC)NC(C)=O)C(C)C)C(=O)NCC(=O)N[C@@H](CC(C)C)C(=O)N[C@@H](CC(C)C)C(=O)N[C@@H](CCCNC(=N)N)C(N)=O) [Compound 229: Ac-MESFPGWNLV(homoR)IGLLR-NH2]	4.60

Moving on to the next binder.
Fill in pIC50 for record Ac-ESYPGWNLV[hArg]IGLLR-NH2 (SMILES CC[C@H](C)[C@H](NC(=O)[C@H](CCCCNC(=N)N)NC(=O)[C@@H](NC(=O)[C@H](CC(C)C)NC(=O)[C@H](CC(N)=O)NC(=O)[C@H](Cc1c[nH]c2ccccc12)NC(=O)CNC(=O)[C@@H]1CCCN1C(=O)[C@H](Cc1ccc(O)cc1)NC(=O)[C@H](CO)NC(=O)[C@H](CCC(=O)O)NC(C)=O)C(C)C)C(=O)NCC(=O)N[C@@H](CC(C)C)C(=O)N[C@@H](CC(C)C)C(=O)N[C@@H](CCCNC(=N)N)C(N)=O) [Compound 231: Ac-ESYPGWNLV(homoR)IGLLR-NH2]
< 4.30
